These measurements were taken from paper PMC4791841.

Assignment: determine reported IC50 for the given compounds.
# tested_on: Lef4 (Autographa californica nuclear polyhedrosis virus)
# Construct: the N-terminal RTPase domain (aa 1 to 236) of AcNPV Lef4 capping enzyme; HisSmt3 (N, cleaved yes); made in house; host or cells: Escherichia coli
# Sequence (P41477 1-236): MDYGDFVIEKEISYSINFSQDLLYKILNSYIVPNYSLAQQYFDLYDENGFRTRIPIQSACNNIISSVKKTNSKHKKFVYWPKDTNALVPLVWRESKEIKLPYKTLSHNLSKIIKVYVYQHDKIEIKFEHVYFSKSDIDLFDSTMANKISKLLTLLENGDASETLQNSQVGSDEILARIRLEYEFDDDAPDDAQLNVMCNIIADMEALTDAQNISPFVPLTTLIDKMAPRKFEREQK
# test_method_notes: TLC assay for 32Pi release from [γ-32P]ATP, Lef4;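 note: Lef4 RNA triphosphatase cleaving radiolabelled ATP over 10 min at 37°C, hydrolysis set relative to inhibitor-free 5% DMSO controls, comparisons made against TbCet1 tested the same way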
# Assay type: biochemical, Autographa californica nucleopolyhedrovirus (AcNPV)
Numbers only, in µM.

O=C(OC[C@H]1O[C@@H](OC(=O)c2cc(O)c(O)c(O)c2)[C@H](OC(=O)c2cc(O)c(O)c(O)c2)[C@@H](OC(=O)c2cc(O)c(O)c(O)c2)[C@@H]1OC(=O)c1cc(O)c(O)c(O)c1)c1cc(O)c(O)c(O)c1    59
O=C(O)C1OC(Oc2c(-c3ccc(O)c(O)c3)oc3cc(O)cc(O)c3c2=O)C(O)C(O)C1O (centres unmarked)    29
O=C(CCO)c1ccc(O)cc1    160

Parameter requested: IC50. Apply to each item below.
1. Oc1cc(O)c2c(c1)O[C@H](c1ccc(O)c(O)c1)[C@H](O)C2 [Compound 4C, epicatechin]
2. O=C(O)/C=C/c1ccc(O)c(O)c1

Output:
1. 34
2. 75

* * *

# tested_on: MimiCE (Acanthamoeba polyphaga mimivirus)
# Construct: the N-terminal RTPase domain (amino acids [aa] 1 to 237) of mimivirus capping enzyme (MimiCE); HisSmt3 (N, cleaved yes); made in house; host or cells: Escherichia coli
# Sequence (Q5UQX1 1-237): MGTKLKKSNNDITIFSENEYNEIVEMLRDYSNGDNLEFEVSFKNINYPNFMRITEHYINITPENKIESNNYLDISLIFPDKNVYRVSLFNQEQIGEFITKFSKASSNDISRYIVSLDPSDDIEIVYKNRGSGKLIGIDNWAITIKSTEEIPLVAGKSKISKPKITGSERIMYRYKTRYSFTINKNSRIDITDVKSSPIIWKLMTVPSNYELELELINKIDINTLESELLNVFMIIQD
# test_method_notes: biochemical
# Type: biochemical
# assay_setup: 7 nM MimiCE, 37°C; read-out: IC50 MimiCE
reported_property: pIC50
One number for each entry, as −log10 of the molar value.

O=C(/C=C/c1ccc(O)c(O)c1)O[C@@H]1C[C@](OC(=O)/C=C/c2ccc(O)c(O)c2)(C(=O)O)C[C@@H](OC(=O)/C=C/c2ccc(O)c(O)c2)[C@H]1OC(=O)/C=C/c1ccc(O)c(O)c1    5.85

Task: Specify measured pIC50 for `O=C(CCO)c1ccc(O)cc1` .
Output: 4.08

* * *

# tested_on: TbCet1 (Trypanosoma brucei brucei, UniProt Q582T2)
# Sequence (Q582T2 1-253): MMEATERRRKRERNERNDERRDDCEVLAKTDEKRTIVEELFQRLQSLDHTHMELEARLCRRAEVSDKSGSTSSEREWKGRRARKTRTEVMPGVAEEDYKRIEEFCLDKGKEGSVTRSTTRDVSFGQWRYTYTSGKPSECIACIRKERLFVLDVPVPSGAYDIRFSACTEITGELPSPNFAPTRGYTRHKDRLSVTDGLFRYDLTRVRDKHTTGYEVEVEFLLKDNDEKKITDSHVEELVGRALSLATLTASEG
# test_method_notes: colorimetric malachite green HTS assay of Pi release from ATP by TbCet1
reported_property: IC50
Please don't drop the unit; write it after the number.

State recorded IC50 for all listed compounds.
1. O=C(CCO)c1ccc(O)cc1
2. O=C(/C=C/c1ccc(O)c(O)c1)O[C@@H]1C[C@](OC(=O)/C=C/c2ccc(O)c(O)c2)(C(=O)O)C[C@@H](OC(=O)/C=C/c2ccc(O)c(O)c2)[C@H]1OC(=O)/C=C/c1ccc(O)c(O)c1

Output:
1: 630 nM; 2: 20 nM

Could you tell me IC50 for each of these compounds? They are listed below.
1. O=c1c(O)c(-c2cc(O)c(O)c(O)c2)oc2cc(O)cc(O)c12
2. Oc1cc(O)c2c(c1)O[C@H](c1ccc(O)c(O)c1)[C@H](O)C2 [Compound 4C, epicatechin]
3. O=C(OC[C@H]1O[C@@H](OC(=O)c2cc(O)c(O)c(O)c2)[C@H](OC(=O)c2cc(O)c(O)c(O)c2)[C@@H](OC(=O)c2cc(O)c(O)c(O)c2)[C@@H]1OC(=O)c1cc(O)c(O)c(O)c1)c1cc(O)c(O)c(O)c1
4. O=C(O)C1OC(Oc2c(-c3ccc(O)c(O)c3)oc3cc(O)cc(O)c3c2=O)C(O)C(O)C1O (stereo not shown)
5. O=C(/C=C/c1ccc(O)c(O)c1)O[C@H](Cc1ccc(O)c(O)c1)C(=O)O

Output:
["230 nM", "260 nM", "40 nM", "180 nM", "50 nM"]
